- Tested on: Macrosiphum euphorbiae
- Experiment Notes: Biological activity on Macrosiphum euphorbiae (Aphides)
- Assay type: in vivo
- Condition Description: potato plants, 24 h
- Method: (1) Biological activity on Macrosiphum euphorbiae (Aphides) Potato plants grown in pots were infested with adult females of aphides and, after several hours, were sprinked with an aqueous dispersion of the products under examination (see TABLE 5). The percentage of mortality was assessed after 24 hours after the treatment (untreated plants=0).
Metric Name: Activity (mortality class), Macrosiphum E.

# Molecule, Value Measured
rows = [
    ("CCOP(=S)(OCC)Oc1nc(C(=O)CSC)nn1-c1ccccc1", "± (10-69% of mort.)"),
    ("CCOP(=S)(OCC)Oc1nc(C(C)OC)nn1-c1ccccc1 (stereo not shown)", "+ (70-99% of mort.)"),
    ("CCCCn1nc(C=C(Cl)Cl)nc1OP(=S)(OCCC)OCCC", "± (10-69% of mort.)"),
    ("CCCOP(=S)(OCCC)Oc1nc(C=C(Cl)Cl)nn1C", "++ (100% of mortality)"),
    ("C=CCn1nc(C=C(Cl)Cl)nc1OP(=S)(OCC)OCC", "++ (100% of mortality)"),
    ("CC=Cc1nc(OP(=S)(OCC)OCC)n(C(C)C)n1", "++ (100% of mortality)"),
    ("CCOP(=S)(OCC)Oc1nc(C(C)=C(Cl)Cl)nn1CC", "++ (100% of mortality)"),
    ("CCOP(=S)(OCC)Oc1nc(C(C)SC)nn1-c1ccccc1 (stereo not shown)", "+ (70-99% of mort.)"),
    ("C=C(C)c1nc(OP(=S)(OCC)OCC)n(C)n1", "++ (100% of mortality)"),
    ("CCOP(=S)(OCC)Oc1nc(C(O)CSC)nn1-c1ccccc1 (stereo not shown)", "++ (100% of mortality)"),
]
